The following binders are shown together with reported log10(Kd) values.
Biological target: T1, human KDR-Fc fusion (R&D Systems #357-KD-050) (human, UniProt P35968 20-764)
T1 construct: bought
T1 sequence (P35968 20-764): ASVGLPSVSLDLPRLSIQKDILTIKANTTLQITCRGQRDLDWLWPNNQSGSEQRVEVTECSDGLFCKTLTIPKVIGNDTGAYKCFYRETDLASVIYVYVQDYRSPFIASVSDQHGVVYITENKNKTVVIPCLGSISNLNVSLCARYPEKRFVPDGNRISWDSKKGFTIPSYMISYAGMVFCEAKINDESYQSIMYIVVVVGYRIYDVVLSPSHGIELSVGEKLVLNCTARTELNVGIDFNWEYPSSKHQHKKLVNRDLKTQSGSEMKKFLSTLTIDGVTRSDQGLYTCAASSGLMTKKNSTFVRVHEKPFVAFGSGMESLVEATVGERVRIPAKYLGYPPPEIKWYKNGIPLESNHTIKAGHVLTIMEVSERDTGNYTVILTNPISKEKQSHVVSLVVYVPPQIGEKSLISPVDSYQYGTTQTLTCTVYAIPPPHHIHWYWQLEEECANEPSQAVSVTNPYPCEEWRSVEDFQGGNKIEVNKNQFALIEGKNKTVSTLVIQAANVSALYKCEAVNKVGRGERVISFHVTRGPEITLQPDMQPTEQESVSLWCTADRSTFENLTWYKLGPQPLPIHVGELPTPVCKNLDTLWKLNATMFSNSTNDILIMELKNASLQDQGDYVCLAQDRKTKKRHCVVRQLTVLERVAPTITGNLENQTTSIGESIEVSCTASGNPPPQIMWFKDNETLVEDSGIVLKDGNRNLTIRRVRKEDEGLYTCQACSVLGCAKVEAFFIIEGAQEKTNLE
Assay: fluorescence anisotropy, fluorescein-labeled peptide
Bridge positions count the residues as written; N and C are the ends.
A difference of one corresponds to tenfold Kd; all values are log10 with Kd in nM.

Sample answers from the record:
| Binder | Measurement Kind | Readout Value |
| --- | --- | --- |
| Ac-AQAFPRFGGDDYWIQQYLRYTDGGK-NH2 (not fully specified) [SEQ ID NO:306] | log10(Kd) | 2.72 |
| Ac-AGSDWCRVDWYYCWLMGTGGGK-NH2 (disulfide 6-13 (inferred); not fully specified) [SEQ ID NO:270] | log10(Kd) | 1.81 |
| Ac-GDPDTCTMWGDSGRWYCFPADPGGGK-NH2 (disulfide 6-17 (inferred); not fully specified) [SEQ ID NO:301] | log10(Kd) | 2.69 |
| Ac-AGERWVECRAETGFCYTWVSGTGGGK-NH2 (disulfide 8-15 (inferred); not fully specified) [SEQ ID NO:289] | log10(Kd) | 3.32 |

For the binder shown here, Ac-AGPDWCEEDWYYCWITGTGGGK-NH2 (disulfide 6-13 (inferred); not fully specified) [SEQ ID NO:273] , give the reported log10(Kd). 1.88

// provenance: patent EP2014310A2
